Target protein (sequence): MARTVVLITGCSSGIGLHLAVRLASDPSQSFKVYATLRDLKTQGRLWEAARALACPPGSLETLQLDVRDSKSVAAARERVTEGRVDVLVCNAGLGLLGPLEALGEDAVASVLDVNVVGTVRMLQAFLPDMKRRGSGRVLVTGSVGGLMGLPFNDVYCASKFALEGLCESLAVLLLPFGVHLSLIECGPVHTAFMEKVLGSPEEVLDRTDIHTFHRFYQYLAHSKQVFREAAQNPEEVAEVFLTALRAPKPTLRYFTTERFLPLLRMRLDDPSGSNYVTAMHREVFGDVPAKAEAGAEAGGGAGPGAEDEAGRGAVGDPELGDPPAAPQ
Quantity Kind: pIC50
Kindly note that pIC50 refers to -log10 of the concentration in mol/L and answer with the value alone.

Look up pIC50 for this molecule: `C=CCc1cc2c(cc1O)CC[C@@H]1[C@@H]2CC[C@]2(C)C(=O)CCC[C@@H]12`
7.62

Now this one: `COc1cc2c(cc1O)CC[C@@H]1[C@@H]2CC[C@]2(C)C(=O)CCC[C@@H]12`
7.07

Data origin, for the record: patent US7732493B2
